The reported numbers originate from paper PMC10873254.

test: in vivo; design: species or system BALB/c nu/nu female mice; conditions: female, BALB/c nu/nu, mouse, iv, 40 pmol, total radioactivity, Tumor-to-bone ratio
property: tissue to tissue ratio at 24 h
Reply with just the number.

// field: tissue to tissue ratio at 24 h; key: CCNC(=O)[C@H](CC(C)C)NC(=O)[C@H](Cc1c[nH]cn1)NC(=O)CN(C)C(=O)[C@@H](NC(=O)[C@H](C)NC(=O)[C@H](Cc1c[nH]c2ccccc12)NC(=O)[C@H](CCC(N)=O)NC(=O)[C@@H](Cc1ccccc1)NC(=O)COCC(=O)Nc1ccc(CNC(=O)CCC(C(=O)O)N2CCN(CC(=O)O)CCN(CC(=O)O)CCN(CC(=O)O)CC2)cc1)C(C)C (stereo partly shown) [[^111In]In-AU-SAR-M1, metal not drawn] ; value = 173
